Ref: ChEMBL document CHEMBL1201862

Test system: CCRF-CEM
experimental_protocol: NCI tumour cell line growth inhibition, 48 h
The source made the active and inactive calls. Cut-off read from the data, not from the text of the source: active = GI50 up to about 1.1 µM and inactive = higher.
Hi there, use one of these labels in your reply, thanks! T (active), F (inactive)

>  <compound>
C/N=C(\Nc1cccc(C(F)(F)F)c1)SCc1ccc(N=C=S)cc1

>  <label_value>
F

$$$$

Incoming: Would you mind telling me which call this test gave CN=S(=O)(C[C@]1(O)CC2OC1C1OC(C)(C)OC21)c1ccccc1 (some centres undefined) ?
Outgoing: F

Incoming: Would you mind telling me which call this test gave CCOC(=O)C1C(=O)CN2CCc3c([nH]c4ccccc34)C12C(=O)OCC (centres undefined) ?
Outgoing: F

Incoming: Would you mind telling me which call this test gave CC1=C(O)C(=O)C=C2C1=CC=C1[C@@]2(C)CC[C@@]2(C)C3C[C@@H](C)C(=O)[C@@H](O)[C@]3(C)CC[C@]12C (some centres undefined) ?
Outgoing: T

---

Reported GI50 values follow for various molecules
Tested on: NCI-H460
experimental_protocol: NCI tumour cell line growth inhibition, 48 h
Active and inactive are the calls of the source. No stated cut-off is given here; in the data, active = GI50 up to about 1.1 µM and inactive = higher.

>  <molecule>
O=C1/C(=C/c2ccccc2)CCC/C1=C\c1ccccc1 [2,6-DIBENZYLIDENECYCLOHEXANONE]

>  <reported>
14.9 µM (inactive)

$$$$
>  <molecule>
CCOC(=O)NC(=O)c1cn(CCCOC(=O)CCCCCCCCC(=O)OCCCn2cc(C(=O)NC(=O)OCC)c(=O)[nH]c2=O)c(=O)[nH]c1=O

>  <reported>
39.4 µM (inactive)

$$$$
>  <molecule>
CCOC(=O)c1nc2ccccc2n(CC)c1=O

>  <reported>
81.7 µM (inactive)

$$$$

# evaluate next
Incoming: Indicate its recorded GI50; the molecule in question is COC1=C(Br)[C@H](O)[C@@]2(C=C1Br)CC(C(=O)NCCCOc1c(Br)cc(C(O)CNC(C)=O)cc1Br)=NO2 (some centres undefined) [APLYSINAMISINE III]
Outgoing: > 10 µM (inactive)

---

Test system: OVCAR-3
experimental_protocol: NCI tumour cell line growth inhibition, 48 h
Activity calls are given as the source filed them. Rule as the data show it: active = GI50 up to about 1.1 µM and inactive = higher.
Hi there, use one of these labels in your reply, thanks! active, inactive

>  <compound>
CCCC(=O)O[C@H]1C=C2C[C@@]34SS[C@]5(CC6=C[C@H](OC(C)=O)[C@@H]7O[C@@H]7[C@H]6N5C3=O)C(=O)N4[C@@H]2[C@H]2O[C@H]21

>  <label_value>
active

$$$$
>  <compound>
O=C(O)CCCc1ccc2ccc3ccccc3c2c1

>  <label_value>
inactive

$$$$
>  <compound>
CCOc1ccccc1NC(=O)C(=O)CC(=O)C1=C(C)Nc2ccccc2S1

>  <label_value>
inactive

$$$$
>  <compound>
CN(Cc1ccccc1)c1cc(=O)n(C)c(=O)[nH]1

>  <label_value>
inactive

$$$$
>  <compound>
Cc1ccc(Nc2nnc(-c3ccc4c(c3)OCO4)o2)c(C)c1

>  <label_value>
inactive

$$$$

Incoming: Would you mind telling me which call this test gave c1cc2n(n1)CCN2 ?
Outgoing: inactive

Incoming: Would you mind telling me which call this test gave O=C(O)c1ccccc1C1c2ccc(Cl)cc2Oc2cc(Cl)ccc21 ?
Outgoing: inactive

Incoming: Would you mind telling me which call this test gave O=C1c2sc(-c3ccc(F)cc3)cc2-n2cccc21 ?
Outgoing: inactive

---

Test system: OVCAR-3
experimental_protocol: NCI tumour cell line growth inhibition, 48 h
Activity calls are given as the source filed them. No stated cut-off is given here; in the data, active = GI50 up to about 1.1 µM and inactive = higher.
assay_endpoint: GI50

Known GI50 results, listed for orientation:
>  <compound>
O=C(O)c1ccccc1-c1ccccc1C(=O)Nc1ccc2c(c1)Cc1cc(F)ccc1-2

>  <GI50>
17.7 µM (inactive)

$$$$
>  <compound>
CO[C@H](C(=O)O[C@H]1C(=O)N2CCC3CCC1C32C)c1ccccc1 (some centres undefined)

>  <GI50>
> 100 µM (inactive)

$$$$
>  <compound>
CC(=O)Oc1ccc2c(c1)CC[C@@H]1C2[C@@H](O[N+](=O)[O-])C[C@@]2(C)C1CC[C@@H]2O (some centres undefined)

>  <GI50>
35.1 µM (inactive)

$$$$

Incoming: Indicate its recorded GI50; the compound in question is CCOc1ccc(NC(=O)C(=O)C2C(=O)Nc3ccccc3[S+]2[O-])cc1 (centres undefined)
Outgoing: > 100 µM (inactive)
